assay: soluble on expression in E. coli; label from the status in PepcDB or PDB records
outcome_measure: soluble on expression in E. coli

| residue_codes | recorded_value |
| --- | --- |
| MGSDKIHHHHHHVAISIAGGVRPGKVIEIERRLYKQLIVGKHKANAMPDELSAELEESANKLDIERKALKMRLEKQAKEKSVYVEVSALLTHTVNNAIEHQLAHPQMILEASAISENQILLLDLLLHPDLNINRLRPIIESINWLSRDLINLINSPASRHRRPKHGDVQVTDIKLVLNYIGIEHLRLLIPYFCLRNWLPSGNANLLWITRKLWRYSMVSAIAAQTLAELHNEEPGLAYSCALMYQFSTSIILSQSGRIFDNTWGTWLREASHSREKQVYDAIMATDFPAEEVLGQVLLHSHRLNWQLLSLLKFDDSPITQVLKELDHDYHFTELSADAAIVAKASCYAKVLLLEEQQQIDPQEKRIMFDYYQFSAQELIRLKGQNFRKLDLL | not soluble |
| MSSEEDEIAELSKDTPPEKKRKISESGASSSSFIPESTSEESLSLKSKKSGSRKRILTASSSTNSIAMKSSASWIQEKDTPINKSDEEKSIAESLLIANFSNEQLDRYTAFKRSRFNRRIIKNVITRTTGQIPSDPLALAVAGLTKMFIGDLVEEAVELRGALNEQDRPVQPYHITRAFDKLLAEGKLWPPYGAKY | not soluble |

###

experiment: soluble on expression in E. coli; label from the status in PepcDB or PDB records
outcome_measure: soluble on expression in E. coli

Worked cases, answers included:
| residue_codes | recorded_value |
| --- | --- |
| MREDNQSLSHTTWNCKYHIVFAPKYRRQIIYGRYKASIGRIIRDLCERKGVIIHEANACSDHIHMLISIPPKLSVSSFMGYLKGKSSLMIFDKHANLKYKYGNRKFWCRGYYVDTVGRNQKVIAEYIQNQLQEDRVADQLTLFESVDPFTGEINKRK | not soluble |
| MGSDKIHHHHHHMSAKKNEIRSKLALLQLATELGSISKACGIMGYSRDSYYRFKKQYETAGERGLKNLSRRKPALKNRVSQAVEDQVIEIALDYPNYGQAKVAELLTARGCAISASGVRTIWVRHNLETKKNRLLALHSKLKQDNNLAPSDQVRIEKLYQLDSNDPIFECLYPGDICVQDTFDLGVISPLGQLYQHTFVDGYSQFAIAVIMPERDSASAAEFLEQTVLPWYATAQGLNINTILTDRGSEFFGKKSQQFSDVLSAHNINHIQMRAYNGPVVNGLAARFQDLAYHEFYEPFLKENKAGSLLDLNQQLANWLYDYNHSHAISGRYTLGKTAAEVLKLTKHLSEASSQCS | not soluble |
| SLSSLEGQENSFTINSVDMKSLPDWTVQNGKNLTLQCFADVSTTSHVKPQHQMLFYKDDVLFYNISSMKSTESYFIPEVRIYDSGTYKCTVIVNNKEKTTAEYQLLVEGVPSPRVTLDKKEAIQGGIVRVNCSVPEEKAPIHFTIEKLELNEKMVKLKREKNSRDQNFVILEFPVEEQDRVLSFRCQARIISGIHMQTSESTKSELVTVTESFSTPKFHISPTGMIMEGAQLHIKCTIQVTHLAQEFPEIIIQKDKAIVAHNRHGNKAVYSVMAMVEHSGNYTCKVESSRISKVSSIVVNITELFSKPELESSFTHLDQGERLNLSCSIPGAPPANFTIQKEDTIVSQTQDFTKIASKSDSGTYICTAGIDKVVKKSNTVQIVVCEMLS | soluble |
| MSLKTITFFKRVLASAALVSVCGFACATNNGKQFIHNDTMEGGKLVCREIYAMNDAASGILNPVKMYKYSYDTDQQKTVKSTYAWNIFKNTWETESRTVISRYETETSVEYSVWNKEKGSFDLSKKYIYITDNNNQLIAQYAYKMNSRTNQWILEKDALTPIYENIYATTREGHHHHHH | soluble |
| MDNKVILVGGFHEIIELCEDNDIEIAGIIDNYLTNDTYWGYPIIGTDDKAKVLFETYKNVPVLITPDVPHVRYKLYHYYKSIGFQVASLISRDASISRSAIIGEGTIIQRGANLSSNIKIGQMVKVNTNANIMHDCLIGNYVTVAPNAVLLGKVEIDDKAYIGANATLLPSVKIGENVTVGAGSVVTKSVRLEHHHHHH | not soluble |

Turning now to a further sequence:
I am curious: what soluble on expression in E. coli value has been reported for LADSIVPRQQWAAIEPRRQIKMNGRADEIFLWQTGPDTCSLMGLTADKCQGCLQDSSCTEQIVKALQDADFKEGNDDIKYNFLIDQDGVIYEGRGWGVVGQHTKGRDSHSIGVAVIGDFGKKEPSQALQDALSKLIICGQAAEELSSGARLRTTPAMSGQAFYDMLDRCDGLCLDD ?
soluble

###

experiment: soluble on expression in E. coli; label from the status in PepcDB or PDB records
outcome_measure: soluble on expression in E. coli

Worked cases, soluble on expression in E. coli given:
| residue_codes | outcome_measure | recorded_value |
| --- | --- | --- |
| YRRFEKEKLKSQWNNDNPLFKSATTTVMNPKFAES | soluble on expression in E. coli | soluble |
| MGHHHHHHSHMVAHNQVAADNAVSTAAEPRRRPEPSSSSSSSPAAPARPRPCPAVPAPAPGDTHFRTFRSHADYRRITRASALLDACGFYWGPLSVHGAHERLRAEPVGTFLVRDSRQRNCFFALSVKMASGPTSIRVHFQAGRFHLDGSRESFDCLFELLEHYVAAPRRMLGAPLRQRRVRPLQELCRQRIVATVGRENLARIPLNPVLRDYLSSFPFQI | soluble on expression in E. coli | not soluble |
| MGSDKIHHHHHHMSETENNELTAGKQSKEPRSNQKLKLLYLAKILLNNTDANHDITLDEILNKLHAYDVTAARKSLYDDIAQLNDFGIKTQKTQYGRTVHYKVIGRAFELAELKLLVDSVAAAKFITEEKSNELIKKLESLTSRQEAATLQRQVYVAGRVKTMNSDIMKNVDAIHNAIANNSSLSFQYCRWNTKKELEVKHDGARYHVSPWGLLWNDGNYYLIGYDHDTQVKDIRHYRVDKMKNILIENKVREGREKLKKLDIASYGKSKFGMYNGEEIKAEILCKNSAIGVLIDRFGTDVTILKKDEAHSRVFVKVADNKLFIHWIMAMGDNFKIIGPENLVKEVHDELNRLAKQYELAD | soluble on expression in E. coli | not soluble |
| MGSDKIHHHHHHMILAAKNSVFVHIRRGDYVGIGCQLGIDYQKKALEYMAKRVPNMELFVFCEDLEFTQNLDLGYPFMDMTTRDKEEEAYWDMLLMQSCQHGIIANSTYSWWAAYLIENPEKIIIGPKHWLFGHENILCKEWVKIESHFEVKSQKYNA | soluble on expression in E. coli | not soluble |

Requested read-out: soluble on expression in E. coli. Entry: MGSDKIHHHHHHMSQIPVAEKLVGALSSGLAVLRYLAGMPTPVGVTRVARDLELNSSTCFNLLKTLVHEGLVTFDERTKTYTIGIGLVELAKGALDQASFARLLRPQLESIAQQHKVTATLWERTRNERVVLVDLADNPAAMRVHMSIGQRLPMYLAALGRCMAAYSELSADELRTRIESFRWENAPSFEEYYAEVQDVKERGYAVDNGNYVKGVTTVSAPVIDANKRAVMAISAVSFSAQLNRAAIRALGEDLGARAIEASRAISGRVRAA
not soluble

Try MWHIFERFVNEYERWFLVHRFAYLSELQAVKCLLPEGRGVEIGVGTGRFAVPLKIKIGVEPSERMAEIARKRGVFVLKGTAENLPLKDESFDFALMVTTICFVDDPERALKEAYRILKKGGYLIVGIVDRESFLGREYEKNKEKSVFYKNARFFSTEELMDLMRKAGFEEFKVVQTLFKHPSELSEIEPVKEGYGEGAFVVIRGTKK next.
soluble

Okay, and MGSDKIHHHHHHVDLMLKSVISYFLPNYCLVCEREIDPNDYLCKDCLTSIRGPIMAPVELLNIDSAHSYWKYESPMKELIRAYKFGDRPGVARLFAKIVFEMIDVFAPSTDVIVPVPTSLQAFIRRGFDTNLRILRHLARTIDIKIDNVLSISGKTVPQSTLKMQDRIDNVRDKFFLRKKPRSTSVILFDDVVTSGATASQCARVLREGGVKEITLLAIASAKK ?
not soluble

What would you report for MNETIRRILAESGTKTSKIRKLLLIGLSHREIADLLTRGNRGFVWNVYKRMRDEGLLPASQTATVLRPEPDYTFNRCFGVEIEAYNCPRQTLTDALREAGIPVEIGSRNAETNSNWKLTTDGSLEGSHTFELVSPILCGEQGLEVLERVCWVLDAYNVKINSSCGVHVHFNAGDFNLTTWQNLILSYKHAETEIDKFMPASRRGNRNTYCRSLRGFSDEDIRSAESIESLQRLFGSRYMKVNLEAYSRHRTVEFRQHSGTINFTKIENWVRFLGRMIIFASTASLPAGIRLEDFPFLGEKQKLYYKLRTKKLMV ?
not soluble

Do the same for MLRREFGPKYTAKINEAEENWQARAEAIKKGKKQNTWDLFEERGYVKDTAGTKEHIAELMRTRRIGAYVGIDPTAPSLHVGHLLPLMPLFWMYLEGYKAFTLIGGSTAKIGDPTGRLKSRDHLSSSDATMNMTKIHYQLKKLWENVDTQMRARGYEADWARKRGIVNNNHWWNKQPMLEVLRRVGHALRIGPMLSRDTVKNKMTQGDGVSFAEFTYPIMQGWDWFELFYQQGVQMQIGGSDQYGNIISGLEVVKAARESEPDPQERKYVTPKTALDECVGFTVPLLTDSSGAKFGKSAGNAIWLDPYQTSVFDFYGYFVRRSDQEVENLLKLFTFMPISEITKTMEEHIKDPSKRVAQHTLAREVVTLVHGKQEASAAEDQHRMMYTGQMTI please
soluble

Ok, now MGHHHHHHSHMVGSRRVKAQTFAERRERSFSRSWSDPTPMKADTSHDSRDSSDLQSSHCTLDEAFEDLDWDTEKGLEAVACDTEGFVPPKVMLISSKVPKAEYIPTIIRRDDPSIIPILYDHEHATFEDILEEIERKLNVYHKGAKIWKMLIFCQGGPGHLYLLKNKVATFAKVEKEEDMIHFWKRLSRLMSKVNPEPNVIHIMGCYILGNPNGEKLFQNLRTLMTPYRVTFESPLELSAQGKQMIETYFDFRLYRLWKSRQHSKLLDFDDVL
not soluble

Item: MSLRKVIGIGETILDIIFRNDQPSAAVPGGSVFNGIVSLGRMGVNVCFISETGNDHVGNIILQFMRDNHIPTDHVNVFPDGKSPVSLAFLNEHSDAEYIFYKDYPKQRLDVLFPSINEDDIIVIGSYYALNPVLRDKILELLDIAKEKRAIVYYDPNFRSSHKNEAMKLAPTIIENLEYADIVRGSLEDFYYMYGIKDVEKIYKDKIKFYCPLFLCTAGAERISLRTNAISKEYPVAPLEAVSTIGAGDNFNAGLIYGMLKYDVRYRDLQHLSEETWDKVIQCGQDFAAEVCKSFNNSISGEFAANYREGHHHHHH
soluble
